Attribution: patent US12594292B2

Measured CC50 values are reported for all entries that follow.
assayDetails: Cytotoxicity (CC50) in human PBMCs
Type: cell-based
setupConditions: human PBMCs
Numbers only here, please. The scale is µM.

Examples from the recorded data:
molecule	experimentalValue
CCCCCCCCCCCCCCCCCCOCCOP(=O)(O)OC[C@H]1O[C@@H](n2cc(F)c(N)nc2=O)CS1	35.6
CCCCCCCCCCCCCCCCCCOCCOP(=O)(OCc1ccccc1)OC[C@H]1O[C@@H](n2cc(F)c(N)nc2=O)CS1 (stereo partly shown)	54.7
CCCCCCCCCCCCCCCCCCOCCOP(=O)(CO[C@H](C)Cn1cnc2c(N)ncnc21)OCc1ccccc1 (stereo partly shown)	8.72

Request: Write down CC50 measured for item CCCCCCCC/C=C\CCCCCCCCOCCOP(=O)(O)CO[C@H](C)Cn1cnc2c(N)nc(N)nc21
Response: 15
